# Test system: HS 578T breast
# test-protocol: NCI tumour cell line growth inhibition, 48 h; in the data active = GI50 below about 0.43 µM; inactive = the rest
Return exactly one item of true for active, false for inactive

Answered examples (5):
{"compound": "O=C1/C(=C\\c2ccc(F)cc2)CN(C(=O)c2ccc([N+](=O)[O-])cc2)C/C1=C\\c1ccc(F)cc1", "study-system": "HS 578T breast", "class": "false"}
{"compound": "O=Nc1ccc(O)c2ccccc12", "study-system": "HS 578T breast", "class": "false"}
{"compound": "CCOC(CCCNCCCn1c2c(c3cc(OC)c(OC)cc3c1=O)C(=O)c1cc3c(cc1-2)OCO3)OCC", "study-system": "HS 578T breast", "class": "false"}
{"compound": "Cn1cc(-c2csc(-c3cn(C)c4ccc(Br)cc34)n2)c2cnccc21", "study-system": "HS 578T breast", "class": "false"}
{"compound": "CCN(CC)CCCC(C)Nc1cc(-c2ccc(C(F)(F)F)cc2)c(C#N)c2nc3ccccc3n12 (stereo unspecified)", "study-system": "HS 578T breast", "class": "false"}

Please turn your attention to the following entry.
## Task GET /call?item= "C/C1=C/C(=O)O[C@@H]2C[C@@H](CC[C@H](C)/C=C\C=C\CC1)O[C@@](O)([C@@H]1CSC(=O)N1CO)C2" returns the recorded outcome of this test.
## Result true

###

Overview of recorded TGI for various compounds
# System: SK-MEL-2 melanoma
# test-protocol: NCI tumour cell line growth inhibition, 48 h
Dear colleague, please return just the value in µM, with no unit written.

{"chemical-string": "COc1cc2c(F)nccc2cc1C(=O)N[C@@H](c1ccc(F)c(Cl)c1)[C@@H]1C[C@@H](O)CN1", "TGI / µM": 25.2}
{"chemical-string": "Cc1c(-c2ccccc2)[nH]c2ccc(Cl)cc2c1=O", "TGI / µM": 87}
{"chemical-string": "Cc1ccc2[nH]c3c(C)c4c(c(C)c3c2c1)CN(C)C=C4", "TGI / µM": 3.2}

From here, focus on the item given below.
## Task Please report the recorded TGI for "C=C(C)[C@@H]1CC[C@]2(C(N)=O)CC[C@]3(C)[C@H](CC[C@@H]4[C@@]5(C)CC[C@H](O)C(C)(C)[C@@H]5CC[C@]43C)[C@@H]12" .
## Result 36.8

###

# Tested on: OVCAR-4 ovarian
# test-protocol: NCI tumour cell line growth inhibition, 48 h
quantity-name: TGI

Worked cases, TGI given:
{"compound": "COCc1c(CO)cnc(C)c1OC1OC(CO)C(O)C(O)C1O (centres undefined)", "quantity-name": "TGI", "value": "> 100 µM"}
{"compound": "CCOC(=O)Cc1nc2ccccc2s1", "quantity-name": "TGI", "value": "> 10 µM"}
{"compound": "N.N.N.N.O=NN1CCCCCC1(P(=O)([O-])[O-])P(=O)([O-])[O-].[Pt+4].[Pt+4]", "quantity-name": "TGI", "value": "> 100 µM"}

From here, focus on the item given below.
## Task Find the measured TGI: item "CC1=CC=C2c3ccccc3C=CN2C(=O)C1" , target or system OVCAR-4 ovarian.
## Result > 100 µM

###

Overview of recorded TGI for various compounds
# Test system: SK-MEL-28 melanoma
# test-protocol: NCI tumour cell line growth inhibition, 48 h

{"compound": "CCCCC(C(=O)N/N=C/c1ccc([N+](=O)[O-])o1)C(=O)N/N=C/c1ccc([N+](=O)[O-])o1", "study-system": "SK-MEL-28 melanoma", "TGI": "14.7 µM"}

## Task Find the measured TGI: item "COc1ccc(/C=N/N=C(\N)NO)c(Cl)c1O" , target or system SK-MEL-28 melanoma.
## Result > 100 µM

## Task Find the measured TGI: item CCOC(=O)C(NC(=O)C(CCCCNP(=O)(OCC)OCC)NC(=O)C(C)NC(C)=O)C(C)C (stereo not given) , target or system SK-MEL-28 melanoma.
## Result > 100 µM

## Task Find the measured TGI: item "COc1cc2c3c(c4ccc(OC)c(OC)c4c2cc1OC)CN1CCC[C@@H]1C3" , target or system SK-MEL-28 melanoma.
## Result 7.43 µM

## Task Find the measured TGI: item "COc1c2c3ccccc3nc-2n(C)c2ccccc12" , target or system SK-MEL-28 melanoma.
## Result 36.9 µM

## Task Find the measured TGI: item "N.N.N.N.O=NN1CCCCCC1(P(=O)([O-])[O-])P(=O)([O-])[O-].[Pt+4].[Pt+4]" , target or system SK-MEL-28 melanoma.
## Result > 100 µM

## Task Find the measured TGI: item "O=C1OC(c2ccccc2)=N/C1=C\c1ccc2ccccc2c1" , target or system SK-MEL-28 melanoma.
## Result > 100 µM

## Task Find the measured TGI: item "CC1=C(C)CC(C#N)(C#N)C(C#N)(C#N)C1" , target or system SK-MEL-28 melanoma.
## Result > 10 µM

The values you see were collected from PubChem BioAssay (NCI).
